Target: Jun bZIP K268A;Fos bZIP R146A (human;human, UniProt P05412;P01100 252-315;137-200, K268A|R146A)
Sequence (P05412 252-315 K268A, chain 1 of 2): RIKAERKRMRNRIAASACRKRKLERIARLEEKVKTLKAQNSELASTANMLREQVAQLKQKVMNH
Sequence (P01100 137-200 R146A, chain 2 of 2): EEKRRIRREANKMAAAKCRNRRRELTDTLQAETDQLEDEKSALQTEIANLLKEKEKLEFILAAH
Assay: ITC
measuredAttribute: Kd (nM)
Provide the reading as a plain figure in nM.

Asked: Can you share its Kd? I mean this binder: TRE duplex 15-mer (dsDNA) DNA 1: CGCGTGACTCACCCC DNA 2: GGGGTGAGTCACGCG
Given back: 420
